- Tested on: KB/HeLa Zellen
- protocol: Cell cycle analysis (G2/M arrest)
- Assay type: cell-based
- appliedConditions: Homo sapiens, HeLa, 24 h, read-out: EC50 in nM (50% cells in G2/M)
measuredEndpoint: EC50
Give your result as the value with the unit written after it.

Input: I'd like to know its EC50. The compound in question is O=C(Nc1ccc2ncccc2c1)C(=O)c1cn(Cc2ccc(Cl)cc2)c2ccccc12
Output: 52.3 nM

Origin of measurements: patent EP1484329A1
